src = patent US20180235914A1

# System: GABA receptors
# test-protocol: Affinity for the GABA receptors
# Type: binding
endpoint-label: affinities for the GABA receptors

[
  {
    "compound": "NC(=O)CCC/N=C(\\c1ccc(Cl)cc1)c1cc(F)ccc1O [PG, reference compound]",
    "endpoint-label": "affinities for the GABA receptors",
    "assay-value": "low affinities"
  },
  {
    "compound": "CCCCCCCCCCCCCCCCCC(=O)NCCCC(=O)O [GS, GABAstearamide]",
    "endpoint-label": "affinities for the GABA receptors",
    "assay-value": "low affinities"
  },
  {
    "compound": "CCCCC/C=C\\C/C=C\\CCCCCCCC(=O)NCCCC(=O)O [GL, GABAlinoleamide]",
    "endpoint-label": "affinities for the GABA receptors",
    "assay-value": "low affinities"
  },
  {
    "compound": "CCCCCCCCCCCCCCCC(=O)NCCCC(=O)O [GP, GABApalmitamide]",
    "endpoint-label": "affinities for the GABA receptors",
    "assay-value": "low affinities"
  }
]
